Each entry below carries its reported pIC50.
tested on: A375 cells; assay: Inhibition of cancer cell growth, MTT assay, A375; format: cell-based; conditions: Homo sapiens, A-375, 72 h exposure
pIC50: −log10 of the molar value.
OBSERVABLE: pIC50

1. O=C(Nc1ccc(F)c(C(=O)c2ccc3ncc(N4CCOCC4)nc3c2)c1)c1cccc(F)c1	5.30 to 6.00
2. O=C(Nc1ccnc(C(F)(F)F)c1)Nc1ccc(F)c(C(=O)c2ccc3ncc(N4CCOCC4)nc3c2)c1	> 6.00
3. O=C(Nc1cccc(C(=O)c2ccc3nccnc3c2)c1)Nc1cc(C(F)(F)F)ccc1Cl	5.30 to 6.00
4. O=C(Nc1ccc(C(F)(F)F)cc1)Nc1ccc(F)c(C(=O)c2ccc3ncc(N4CCOCC4)nc3c2)c1	> 6.00
5. O=C(Nc1ccc(F)c(Cl)c1)Nc1ccc(F)c(C(=O)c2ccc3ncc(N4CCOCC4)nc3c2)c1	> 6.00
6. O=C(Nc1ccc(Cl)c(C(F)(F)F)c1)Nc1cc(F)c(F)c(C(=O)c2ccc3nccnc3c2)c1F	5.30 to 6.00
7. O=C(Nc1cccc(F)c1)Nc1ccc(F)c(C(=O)c2ccc3ncc(N4CCOCC4)nc3c2)c1	> 6.00
8. O=C(Nc1cc(F)c(F)c(C(=O)c2ccc3nccnc3c2)c1)c1cccc(C(F)(F)F)c1	5.30 to 6.00
9. O=C(Nc1cc(F)cc(C(=O)c2ccc3nccnc3c2)c1)Nc1ccc(Cl)c(Cl)c1	< 5.30
10. O=C(Nc1cccc(C(=O)c2ccc3ncc(N4CCOCC4)nc3c2)c1)c1cccc(F)c1	5.30 to 6.00
11. O=C(Nc1cccc(C(=O)c2ccc3ncc(N4CCOCC4)nc3c2)c1)c1cccc(C(F)(F)F)c1	> 6.00
12. O=C(Nc1cccc(C(F)(F)F)c1)Nc1cc(F)c(F)c(C(=O)c2ccc3ncc(N4CCOCC4)nc3c2)c1F	5.30 to 6.00
13. O=C(Nc1cccc(Cl)c1)Nc1cc(F)cc(C(=O)c2ccc3ncc(N4CCOCC4)nc3c2)c1	5.30 to 6.00
14. O=C(Nc1cc(F)cc(C(=O)c2ccc3nccnc3c2)c1)Nc1cccc(C(F)(F)F)c1	< 5.30
15. O=C(Nc1ccc(F)c(C(=O)c2ccc3nccnc3c2)c1)c1cccc(C(F)(F)F)c1	> 6.00
